Every entry's value here was drawn from ChEMBL document CHEMBL3272185.

- Assayed target: Xanthine dehydrogenase/oxidase (Bos taurus)
- Assay overview: Inhibition of bovine milk xanthine oxidase using xanthine as substrate at 10 times I50 preincubated for 20 mins at 25 degC measured after 10 fold dilution relative to control
- Test settings: cattle
Where inhibition (INH) equals or exceeds 50%, the correct label is Y; where it does not, the label is N.

> print(dat)
                              compound  label
1   Oc1cc(O)n2ncc(-c3cccc4ccccc34)c2n1      N
2      Cc1ccc(-c2cnn3c(O)cc(O)nc23)cc1      Y
3  Oc1cc(O)n2ncc(-c3ccc4c(c3)OCO4)c2n1      N
4         Oc1cc(O)n2ncc(-c3cccnc3)c2n1      Y

Check if inhibition (INH) >= 50% (inclusive). Item: Cc1cccc(-c2cnn3c(O)cc(O)nc23)c1
N

Please indicate if the recorded inhibition (INH) for O=[N+]([O-])c1cnn2c(O)cc(O)nc12 meets or exceeds 50%.
Y

====

- Assayed target: Xanthine dehydrogenase/oxidase (Bos taurus, UniProt P80457)
- Sequence (P80457 whole entry): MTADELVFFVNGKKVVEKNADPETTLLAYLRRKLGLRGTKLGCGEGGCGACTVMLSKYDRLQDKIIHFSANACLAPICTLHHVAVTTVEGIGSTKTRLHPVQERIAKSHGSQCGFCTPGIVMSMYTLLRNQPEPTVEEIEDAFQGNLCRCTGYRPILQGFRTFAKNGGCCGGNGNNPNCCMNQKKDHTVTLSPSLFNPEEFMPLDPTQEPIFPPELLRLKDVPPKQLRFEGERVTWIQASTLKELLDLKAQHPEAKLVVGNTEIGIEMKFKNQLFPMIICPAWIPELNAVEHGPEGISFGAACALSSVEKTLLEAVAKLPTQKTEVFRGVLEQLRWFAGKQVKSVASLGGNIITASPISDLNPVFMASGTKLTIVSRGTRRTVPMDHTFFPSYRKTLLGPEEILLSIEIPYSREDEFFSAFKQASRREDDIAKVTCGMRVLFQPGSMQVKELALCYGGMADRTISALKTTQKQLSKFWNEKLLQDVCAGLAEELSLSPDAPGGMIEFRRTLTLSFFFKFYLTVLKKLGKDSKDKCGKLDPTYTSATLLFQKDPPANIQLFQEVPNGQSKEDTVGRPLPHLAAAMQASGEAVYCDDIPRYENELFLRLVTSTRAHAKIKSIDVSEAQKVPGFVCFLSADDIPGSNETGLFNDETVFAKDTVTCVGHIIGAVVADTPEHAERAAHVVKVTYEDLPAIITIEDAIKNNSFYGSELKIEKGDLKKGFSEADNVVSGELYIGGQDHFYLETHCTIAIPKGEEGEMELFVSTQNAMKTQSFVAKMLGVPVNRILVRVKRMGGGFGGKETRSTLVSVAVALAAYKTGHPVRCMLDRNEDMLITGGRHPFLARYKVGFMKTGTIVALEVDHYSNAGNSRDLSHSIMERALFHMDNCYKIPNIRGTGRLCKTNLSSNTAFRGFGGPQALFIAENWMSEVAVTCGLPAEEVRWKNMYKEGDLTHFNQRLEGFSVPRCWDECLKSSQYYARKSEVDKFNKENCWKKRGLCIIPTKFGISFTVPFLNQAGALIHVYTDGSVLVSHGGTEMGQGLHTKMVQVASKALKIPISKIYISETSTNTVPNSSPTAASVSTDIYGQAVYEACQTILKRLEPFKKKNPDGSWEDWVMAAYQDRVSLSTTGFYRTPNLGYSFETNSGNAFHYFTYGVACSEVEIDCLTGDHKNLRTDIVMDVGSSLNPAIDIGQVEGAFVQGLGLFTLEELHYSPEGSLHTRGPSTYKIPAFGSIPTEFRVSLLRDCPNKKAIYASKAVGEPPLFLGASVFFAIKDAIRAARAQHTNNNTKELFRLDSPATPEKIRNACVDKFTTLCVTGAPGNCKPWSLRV
- Assay overview: Mixed-type inhibition of bovine milk xanthine oxidase using hypoxanthine as substrate by Lineweaver-Burk plot analysis
Measurement name: pKi
Note on pKi: it is the negative log10 of concentration, concentration in mol/L.

Answered cases to consult:
> print(dat)
                           compound  number
1   Cc1cccc(-c2cnn3c(O)cc(O)nc23)c1    7.72
2   Cc1ccc(-c2cnn3c(O)cc(O)nc23)cc1    7.62
3  Oc1cc(O)n2ncc(-c3ccc(Cl)cc3)c2n1    7.72

As a next step, examine the compound that follows.
What pKi appears in the records for this compound with Xanthine dehydrogenase/oxidase (Bos taurus, UniProt P80457)? CC(=O)Nc1ccc(-c2cnn3c(O)cc(O)nc23)cc1
7.11

====

Recorded inhibition (INH), one value per entry.
- Assayed target: Xanthine dehydrogenase/oxidase (Bos taurus)
- Assay overview: Inhibition of bovine milk xanthine oxidase using xanthine as substrate at 10 times I50 preincubated for 20 mins at 25 degC measured after 10 fold dilution relative to control
- Test settings: cattle
Your answer should be a plain number; it is taken to be in %.

Examples with their reported inhibition (INH) follow.
> print(dat)
                          compound                            assayed.target  number
1            Oc1cc(O)n2ncc(Cl)c2n1  Xanthine dehydrogenase/oxidase (Bos taurus)      44
2     Oc1cc(O)n2ncc(-c3ccccc3)c2n1  Xanthine dehydrogenase/oxidase (Bos taurus)      49
3  Oc1ncnc2[nH]ncc12 [ALLOPURINOL]  Xanthine dehydrogenase/oxidase (Bos taurus)     100

State its inhibition (INH) on Xanthine dehydrogenase/oxidase (Bos taurus): Oc1cc(O)n2ncc(-c3ccc(Br)cc3)c2n1
53

Fill in the recorded inhibition (INH) for this compound, with Xanthine dehydrogenase/oxidase (Bos taurus) as test system: Oc1cc(O)n2ncc(-c3ccc(Cl)cc3)c2n1
50

# get_value(readout= inhibition (INH), system= Xanthine dehydrogenase/oxidase (Bos taurus)) for CC(=O)Nc1ccc(-c2cnn3c(O)cc(O)nc23)cc1
48

Recall the recorded inhibition (INH) for Oc1cc(O)n2ncc(Br)c2n1 with Xanthine dehydrogenase/oxidase (Bos taurus) and state it.
52
